Target: T1, P8SHb
T1 chain: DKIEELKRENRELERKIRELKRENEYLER
Experiment: two-hybrid library CCNG1;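 further: natural log of median RNA to DNA barcode read ratio; higher means stronger binding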
Short version: interaction score at least -0.7 is condition met, less is condition not met.

# bool: interaction score of DKNRELKEKIERLKEKIRELKEENRYLEE [P12SHb] >= -0.7
condition not met

Could you tell me if the measured interaction score of DKIEELKRENRELERKIRELKRENEYLER [P8SHb] reaches -0.7 or more?
condition met

Evaluate DKIEELKRKIEKLKRENERLERENEWLER [P4SHb] : interaction score at minimum -0.7?
condition not met

Check this binder for interaction score at or above -0.7: DKNEELKREIERLEEENRELERKIEYLKR [P6SHb]
condition met

Could you verify whether the entry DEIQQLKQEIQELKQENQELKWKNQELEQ [4H607-bN] shows interaction score of no less than -0.7?
condition not met

Decide: interaction score of DENEKLEREIRELEREIEKLEKKNRYLKE [P11SHb] >= -0.7?
condition met

Determine whether measured interaction score meets or exceeds -0.7 for DKNEELKRENEELERKIERLKEKIRYLKE [P10SHb]
condition met

Hi, just wondering whether DKIEELKRKNRELKEKNKELKEKIYRLKE [P2SHb] shows interaction score of -0.7 or higher.
condition met

Textbook exercise: given the entry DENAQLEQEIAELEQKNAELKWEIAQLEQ [4H1081-bA] , state whether its interaction score is greater than or equal to -0.7.
condition not met

Decide: is the reported value of interaction score for DENRELEEKIRELKEKNEELKREIKYLEE [P5SHb] equal to or greater than -0.7?
condition met

Could you verify whether the entry DEIKELEEEIRELEEKNEELKRKNEWLKR [P3SHb] shows interaction score of no less than -0.7?
condition met

For this binder, is measured interaction score -0.7 or higher? DEIERLERENEKLERENERLEREIRWLEE [P1SHb]
condition not met

Is interaction score for DEIRELEEKNEELKREIRELEEKNEYLKR [P7SHb] at or above -0.7?
condition met
